In this section, each of the molecules is paired with its reported DC50.
Target: SMARCA4 (Homo sapiens)
Construct: SMARCA2/SMARCA4 protein degradation selectivity in MV4-11 cells; endogenous in cells; host or cells: MV4-11
Assay: SMARCA4 Western blot degradation in MV4-11 cells
Format: cell-based
Details: MV4-11 cells, 24 h; read-out: SMARCA4 MSD MV411 degradation 24 h: Mean external-Abs DC50

Example entries and their recorded answers appear below.
>>> value_reported("C#Cc1ccc(CNC(=O)[C@@H]2C[C@@H](O)CN2C(=O)C(c2cc(OCCN3CCC(N4CCC(N5CCC(CN6CCN7c8cc(-c9ccccc9O)nnc8NC[C@H]7C6)CC5)CC4)CC3)no2)C(C)C)c(F)c1 (stereo partly shown) [I-296]")
"10 to 100 nM"
>>> value_reported("C#Cc1ccc(CNC(=O)[C@@H]2C[C@@H](O)CN2C(=O)[C@@H](NC(=O)N2CC3(CC(N4CCC(c5cnc(N6CCc7[nH]c8nnc(-c9ccccc9O)cc8c7[C@H]6C)nc5)CC4)C3)C2)C(C)(C)CCN2CCN[C@@H](C(=O)O)C2)cc1 [I-342]")
"> 100 nM"
>>> value_reported("C#Cc1ccc(CNC(=O)[C@@H]2C[C@@H](O)CN2C(=O)[C@@H](NC(=O)N2CC3(CC(N4CCC(c5cnc(N6CCc7[nH]c8nnc(-c9ccccc9O)cc8c7[C@H]6C)nc5)CC4)C3)C2)C(C)(C)C)cc1OC [I-319]")
"> 100 nM"

q: Which DC50 is reported with SMARCA4 (Homo sapiens) for this entry: C#Cc1cnc(CNC(=O)[C@@H]2C[C@@H](O)CN2C(=O)[C@@H](NC(=O)[C@H]2CC3(C2)C[C@H](N2CCC(N4CCC(N5CCN6c7cc(-c8ccccc8O)nnc7NC[C@H]6C5)CC4)CC2)C3)C(C)(C)C)c(OC)c1 (single isomer, unassigned) [I-330] ?
a: > 100 nM

----------
Molecular target: SMARCA4 (Homo sapiens)
Construct: SMARCA2/SMARCA4 protein degradation selectivity in MV4-11 cells; endogenous in cells; host or cells: MV4-11
Assay: SMARCA4 Western blot degradation in MV4-11 cells
Type: cell-based
Conditions: MV4-11 cells, 24 h; read-out: SMARCA4 MSD MV411 degradation 24 h: Mean external-Abs DC50
In this section, each of the compounds is paired with its reported DC50.

>>> value_reported("C#Cc1ccc(CNC(=O)[C@@H]2C[C@@H](O)CN2C(=O)[C@@H](NC(=O)N2CC3(CC(N4CCC(c5cnc(N6CCc7[nH]c8nnc(-c9ccccc9O)cc8c7[C@H]6C)nc5)CC4)C3)C2)C(C)(C)CCN2CCNCC2)cc1 [I-340]")
"> 0.1 µM"
>>> value_reported("C#Cc1ccc(CNC(=O)[C@@H]2C[C@@H](O)CN2C(=O)[C@@H](NC(=O)N2CC3(CC(N4CCC(c5cnc(N6CCc7[nH]c8nnc(-c9ccccc9O)cc8c7[C@H]6CO)nc5)CC4)C3)C2)C(C)(C)C)cc1 [I-146]")
"0.01 to 0.1 µM"
>>> value_reported("Cc1ncsc1-c1ccc(CNC(=O)[C@@H]2C[C@@H](O)CN2C(=O)[C@@H](NC(=O)[C@H]2CC3(C2)C[C@H](N2CCC(N4CCC(c5ccc6[nH]c7nnc(-c8ccccc8O)cc7c6c5)CC4)CC2)C3)C(C)(C)C)cc1 (single isomer, unassigned) [I-28]")
"> 0.1 µM"

q: So what's the measured DC50 for this one? Cc1ncsc1-c1ccc(CNC(=O)[C@@H]2C[C@@H](O)CN2C(=O)[C@@H](NC(=O)[C@H]2CC3(C2)C[C@H](N2CCN(c4cnc(N5CCc6[nH]c7nnc(-c8ccccc8O)cc7c6[C@H]5C)nc4)CC2)C3)C(C)(C)C)cc1 (single isomer, unassigned) [I-76]
a: > 0.1 µM

q: So what's the measured DC50 for this one? C#Cc1ccc(CNC(=O)[C@@H]2C[C@@H](O)CN2C(=O)[C@@H](NC(=O)N2CC3(CC(N4CCC([C@H]5CC[C@H](N6CCc7[nH]c8nnc(-c9ccccc9O)cc8c7[C@H]6C)CC5)CC4)C3)C2)C(C)(C)C)cc1 [I-184]
a: > 0.1 µM

q: So what's the measured DC50 for this one? C#Cc1ccc(CNC(=O)[C@@H]2C[C@@H](O)CN2C(=O)[C@H](NC(=O)[C@H]2CCC3(CC2)C[C@H](N2CCC(c4cnc(N5CCN6c7cc(-c8ccccc8O)nnc7NC[C@H]6C5)nc4)CC2)C3)C(C)(C)CCO)cc1 (single isomer, unassigned) [I-248]
a: > 0.1 µM

q: So what's the measured DC50 for this one? C#Cc1ccc(CNC(=O)[C@@H]2C[C@@H](O)CN2C(=O)[C@@H](NC(=O)[C@H]2CC3(C2)C[C@H](N2CCC(N4CCC(N5CCN6c7cc(-c8ccccc8O)nnc7NC[C@H]6C5)CC4)CC2)C3)C(C)(C)C)c(Cl)c1 (single isomer, unassigned) [I-229]
a: > 0.1 µM

q: So what's the measured DC50 for this one? C#Cc1ccc(CNC(=O)[C@@H]2C[C@@H](O)CN2C(=O)[C@@H](NC(=O)N2CC3(CC(N4CCC(c5cnc(N6CCc7[nH]c8nnc(-c9ccccc9O)cc8c7[C@@H]6C)nc5)CC4)C3)C2)C(C)(C)C)cc1 [I-228]
a: > 0.1 µM

----------
Target: SMARCA4 (Homo sapiens, UniProt P51532)
Construct: SMARCA2/SMARCA4 protein degradation selectivity in MV4-11 cells; endogenous in cells; host or cells: MV4-11
Sequence (P51532 whole entry): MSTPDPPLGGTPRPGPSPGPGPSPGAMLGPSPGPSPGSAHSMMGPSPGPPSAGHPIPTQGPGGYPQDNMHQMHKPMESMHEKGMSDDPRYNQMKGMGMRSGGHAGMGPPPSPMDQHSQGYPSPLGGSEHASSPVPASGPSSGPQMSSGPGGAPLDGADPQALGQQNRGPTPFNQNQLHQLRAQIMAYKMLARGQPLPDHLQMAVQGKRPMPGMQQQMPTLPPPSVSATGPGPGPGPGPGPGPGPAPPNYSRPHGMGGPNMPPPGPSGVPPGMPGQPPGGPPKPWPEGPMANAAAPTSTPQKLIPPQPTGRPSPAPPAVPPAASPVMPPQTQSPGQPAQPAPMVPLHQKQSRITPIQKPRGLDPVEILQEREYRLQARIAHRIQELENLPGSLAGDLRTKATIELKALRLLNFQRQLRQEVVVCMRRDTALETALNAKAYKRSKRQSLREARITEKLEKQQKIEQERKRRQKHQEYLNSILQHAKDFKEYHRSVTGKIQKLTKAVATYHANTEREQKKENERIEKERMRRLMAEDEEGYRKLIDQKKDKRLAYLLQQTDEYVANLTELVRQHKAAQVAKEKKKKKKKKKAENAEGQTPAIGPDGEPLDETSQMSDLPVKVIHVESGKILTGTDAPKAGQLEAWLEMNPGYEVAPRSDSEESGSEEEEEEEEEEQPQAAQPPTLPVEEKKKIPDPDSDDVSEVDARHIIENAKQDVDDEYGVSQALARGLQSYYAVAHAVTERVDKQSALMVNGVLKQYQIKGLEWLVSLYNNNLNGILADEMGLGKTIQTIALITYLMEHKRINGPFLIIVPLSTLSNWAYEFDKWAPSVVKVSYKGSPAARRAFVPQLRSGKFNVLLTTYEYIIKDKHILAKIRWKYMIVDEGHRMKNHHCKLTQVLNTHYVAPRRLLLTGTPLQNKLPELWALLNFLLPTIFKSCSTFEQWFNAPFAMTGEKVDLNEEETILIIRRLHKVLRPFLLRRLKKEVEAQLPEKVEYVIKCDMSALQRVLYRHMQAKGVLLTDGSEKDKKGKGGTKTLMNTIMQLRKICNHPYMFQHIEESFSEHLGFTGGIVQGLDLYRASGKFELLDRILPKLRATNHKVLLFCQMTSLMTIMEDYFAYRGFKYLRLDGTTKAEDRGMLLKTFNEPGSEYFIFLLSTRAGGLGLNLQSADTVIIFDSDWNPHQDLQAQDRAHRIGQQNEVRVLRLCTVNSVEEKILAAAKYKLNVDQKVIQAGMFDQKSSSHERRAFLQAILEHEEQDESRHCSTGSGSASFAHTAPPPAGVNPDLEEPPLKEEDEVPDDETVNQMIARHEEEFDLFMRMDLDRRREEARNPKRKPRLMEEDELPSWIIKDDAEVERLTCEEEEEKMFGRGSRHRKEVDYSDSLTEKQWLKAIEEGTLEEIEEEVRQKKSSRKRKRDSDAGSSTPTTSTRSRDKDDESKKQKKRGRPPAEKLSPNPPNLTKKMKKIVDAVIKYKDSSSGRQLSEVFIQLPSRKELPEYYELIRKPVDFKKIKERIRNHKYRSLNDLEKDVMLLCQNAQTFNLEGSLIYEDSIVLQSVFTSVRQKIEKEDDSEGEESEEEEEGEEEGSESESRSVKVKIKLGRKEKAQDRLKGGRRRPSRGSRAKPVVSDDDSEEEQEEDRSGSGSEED
Test: SMARCA4 Western blot degradation in MV4-11 cells
Type: cell-based
Details: MV4-11, MV4-11 cells, 24 h; read-out: SMARCA4 MSD MV411 degradation 24 h: average Dmax %
Recorded endpoint: Dmax

>>> value_reported("C#Cc1ccc(CNC(=O)[C@@H]2C[C@@H](O)CN2C(=O)[C@@H](NC(=O)N2CC3(CC(N4CCC(c5cnc(N6CCc7[nH]c8nnc(-c9ccccc9O)cc8c7[C@H]6CO)nc5)CC4)C3)C2)C(C)(C)C)cc1")
"70 to 90%"

q: Which Dmax is reported with SMARCA4 (Homo sapiens, UniProt P51532) for this entry: C#Cc1cnc(CNC(=O)[C@@H]2C[C@@H](O)CN2C(=O)C(c2cc(OCCN3CCC(N4CCC(N5CCC(CN6CCN7c8cc(-c9ccccc9O)nnc8NC[C@H]7C6)CC5)CC4)CC3)no2)C(C)C)c(OC)c1 (stereo partly shown) ?
a: < 50%

q: Which Dmax is reported with SMARCA4 (Homo sapiens, UniProt P51532) for this entry: Cc1ncsc1-c1ccc(CNC(=O)[C@@H]2C[C@@H](O)CN2C(=O)[C@@H](NC(=O)C2(F)CC2)C(C)(C)C)c(OCCN2CCC(c3cnc(N4CCN5c6cc(-c7ccccc7O)nnc6NC[C@H]5C4)nc3)CC2)c1 (single isomer, unassigned) ?
a: > 90%

q: Which Dmax is reported with SMARCA4 (Homo sapiens, UniProt P51532) for this entry: "C#Cc1ccc(CNC(=O)[C@@H]2C[C@@H](O)CN2C(=O)[C@@H](NC(=O)[C@H]2CC[C@@H](c3ccc(-c4cnc(N5CCN6c7cc(-c8ccccc8O)nnc7NC[C@H]6C5)nc4)cc3)CC2)C(C)(C)C)cc1" ?
a: > 90%

----------
Molecular target: SMARCA2 (Homo sapiens)
Sequence (P51531 whole entry): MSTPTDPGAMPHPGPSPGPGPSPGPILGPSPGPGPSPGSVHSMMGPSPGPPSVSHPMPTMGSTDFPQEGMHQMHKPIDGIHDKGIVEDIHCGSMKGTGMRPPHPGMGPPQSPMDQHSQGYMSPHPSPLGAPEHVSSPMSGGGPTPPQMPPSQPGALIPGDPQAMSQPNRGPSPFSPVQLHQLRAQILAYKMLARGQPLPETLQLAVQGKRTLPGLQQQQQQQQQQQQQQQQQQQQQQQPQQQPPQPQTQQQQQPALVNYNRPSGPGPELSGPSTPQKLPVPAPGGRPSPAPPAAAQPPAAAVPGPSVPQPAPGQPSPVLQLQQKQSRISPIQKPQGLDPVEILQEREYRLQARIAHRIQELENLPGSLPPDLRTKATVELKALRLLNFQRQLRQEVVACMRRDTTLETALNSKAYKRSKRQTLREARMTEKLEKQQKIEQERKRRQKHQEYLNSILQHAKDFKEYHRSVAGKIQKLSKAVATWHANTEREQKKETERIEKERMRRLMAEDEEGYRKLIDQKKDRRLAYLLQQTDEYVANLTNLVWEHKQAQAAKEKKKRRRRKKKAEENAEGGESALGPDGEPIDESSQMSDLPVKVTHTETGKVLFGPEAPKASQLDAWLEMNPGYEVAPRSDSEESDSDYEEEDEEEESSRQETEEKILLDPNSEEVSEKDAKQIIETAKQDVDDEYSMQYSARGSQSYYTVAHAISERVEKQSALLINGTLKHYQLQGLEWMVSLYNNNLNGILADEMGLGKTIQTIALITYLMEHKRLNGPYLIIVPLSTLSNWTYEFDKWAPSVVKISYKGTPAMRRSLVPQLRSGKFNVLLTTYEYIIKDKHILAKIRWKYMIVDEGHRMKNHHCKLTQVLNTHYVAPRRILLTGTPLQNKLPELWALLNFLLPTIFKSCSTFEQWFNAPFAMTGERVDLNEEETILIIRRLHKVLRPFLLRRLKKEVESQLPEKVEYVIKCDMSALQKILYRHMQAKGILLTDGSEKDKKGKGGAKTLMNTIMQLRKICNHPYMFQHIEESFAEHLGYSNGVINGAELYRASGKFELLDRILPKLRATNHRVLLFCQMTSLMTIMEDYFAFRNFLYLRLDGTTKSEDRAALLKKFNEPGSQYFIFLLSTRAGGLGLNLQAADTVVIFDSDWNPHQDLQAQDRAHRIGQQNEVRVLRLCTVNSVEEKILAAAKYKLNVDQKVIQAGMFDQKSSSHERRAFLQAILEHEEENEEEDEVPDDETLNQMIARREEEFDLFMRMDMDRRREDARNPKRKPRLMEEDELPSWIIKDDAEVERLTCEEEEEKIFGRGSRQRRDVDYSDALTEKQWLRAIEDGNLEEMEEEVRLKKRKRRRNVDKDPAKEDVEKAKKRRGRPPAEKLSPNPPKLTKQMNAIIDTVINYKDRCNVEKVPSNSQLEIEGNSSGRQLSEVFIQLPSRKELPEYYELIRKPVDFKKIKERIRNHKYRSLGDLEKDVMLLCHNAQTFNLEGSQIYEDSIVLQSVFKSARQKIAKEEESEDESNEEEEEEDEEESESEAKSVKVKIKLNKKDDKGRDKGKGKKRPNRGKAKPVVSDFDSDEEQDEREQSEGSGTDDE
Test: MSD SMARCA2 degradation in A549 cell line
Assay type: cell-based
Settings: A549 cells, 24 h, read-out: SMARCA2 MSD A549 degradation 24 h: Average external-Abs DC50
Recorded endpoint: DC50

>>> value_reported("C#Cc1ccc([C@H](C)NC(=O)[C@@H]2C[C@@H](O)CN2C(=O)[C@@H](NC(=O)N2CC3(CC(N4CCC(c5cnc(N6CCc7[nH]c8nnc(-c9ccccc9O)cc8c7[C@H]6C)cn5)CC4)C3)C2)C(C)(C)C)cc1 [I-250]")
"10 to 50 nM"
>>> value_reported("C#Cc1ccc(CNC(=O)[C@@H]2C[C@@H](O)CN2C(=O)[C@@H](NC(=O)C2CC3(C2)CN(c2cnc(N4CCC(N5CCN6c7cc(-c8ccccc8O)nnc7NC[C@H]6C5)CC4)cn2)C3)C(C)(C)C)cc1 [I-320]")
"< 10 nM"
>>> value_reported("C#Cc1ccc(CNC(=O)[C@@H]2C[C@@H](O)CN2C(=O)[C@@H](NC(=O)N2CCN(C[C@H]3CC[C@@H](N4CCC(N5CCN6c7cc(-c8ccccc8O)nnc7NC[C@H]6C5)CC4)CC3)CC2)C(C)(C)C)cc1 [I-255]")
"> 100 nM"

q: So what's the measured DC50 for this one? Cc1ncsc1-c1ccc(CNC(=O)[C@@H]2C[C@@H](O)CN2C(=O)C(c2cc(N3CC4(CC(N5CCC(c6cnc(N7CCc8[nH]c9nnc(-c%10ccccc%10O)cc9c8[C@@H]7C)nc6)CC5)C4)C3)no2)C(C)C)cc1 (stereo partly shown) [I-11]
a: 10 to 50 nM

Origin of measurements: patent US20250170248A1
